So I've got a bunch of variants here, and I need their Tm values.
B1: Photosystem II lipoprotein Psb27, P74367 (parent)
chain: MSFLKNQLSRLLALILVVAIGLTACDSGTGLTGNYSQDTLTVIATLREAIDLPQDAPNRQEVQDTARGQINDYISRYRRKGDAGGLKSFTTMQTALNSLAGYYTSYGARPIPEKLKKRLQLEFTQAERSIERGV

variants of: B1; details: Synechocystis sp. (strain ATCC 27184 / PCC 6803 / Kazusa); pH 7; Thermal; CD; Sodium phosphate Tris HCl 20 mM; transition: 2; reversible: Yes; structure 2KMF; whole UniProt chain shown
Write it as a number; the unit °C goes unstated.

Would you kindly share the measured Tm for MSFLKNQLSRLLALILVVAIGLTACDSGTGLTGNYSQDTLTVIATLREAIDLPQDAPNRQEVQDTARGQINDYISRYRRKGDAGGLKSFTTMQTALNSLAGYYTSYGARGGGEKLKKRLQLEFTQAERSIERGV [P110G I111G P112G] ?
43.3

Check MSFLKNQLSRLLALILVVAIGLTACDSGTGLTGNYSQDTLTVIATLREAIDLPQDAPNRQEVQDTARGQINDYISRYRRKGDAGGLKSFTTMQTALNSLAGHYTSYGARPIPEKLKKRLQLEFTQAERSIERGV [Y102H] too.
56.3

Could you do the same for MSFLKNQLSRLLALILVVAIGLTACDSGTGLTGNYSQDTLTVIATLREAIDLPQDAPNRQEVQDTARGQINDYISRYRRKGDAGGLKSFTTMQTALNSLAGYYTSYGARPIPEKLKKRLQLRFTQAERSIERGV [E122R] , please?
54.4

And then MSFLKNQLSRLLALILVVAIGLTACDSGTGLTGNYSQDTLTVIATLREAIDLPQDAPNRQEVQDTARGQINDYISRYRRKGDAGGLKSFTTMQTALNSLAGYYTSYGARGIGEKLKKRLQLEFTQAERSIERGV [P110G P112G] , what is it?
49.2

Also MSFLKNQLSRLLALILVVAIGLTACDSGTGLTGNYSQDTLTVIATLREAIDLPQDAPNRQEVQDTARGQINDYISRYRRKGDAGGLKSFTTMQTALNSLAGYYTSYGARPIPEKLKKRLQLEFTQAERSIEEGV [R132E] ?
60.2

Now the variant MSFLKNQLSRLLALILVVAIGLTACDSGTGLTGNYSQDTLTVIATLREAIDLPQDAPNRQEVQDTARGQINDYISRYERKGDAGGLKSFTTMQTALNSLAGYYTSYGARPIPEKLKKRLQLEFTQAERSIERGV [R78E]
57

Would you kindly repeat that for MSFLKNQLSRLLALILVVAIGLTACDSGTGLTGNYSQDTLTVIATLREAIDLPQDAPNRQEVQDTARGQINDYISRYRRKGDAGGLKSFTTMQTALNSLAGYYTSYGARPIPEKLKKELQLEFTQAERSIERGV [R118E] ?
56.6

Quick one: MSFLKNQLSRLLALILVVAIGLTACDSGTGLTGNYSQDTLTVIATLREAIDLPQDAPNRQEVQDTARGQINDYISRYRRKGDAGGLKSFTTMQTALNSLAGYYTSYGARPIPEKLKKRLQLEFTQARRSIERGV [E127R]
56.1

Another variant to look at: MSFLKNQLSRLLALILVVAIGLTACDSGTGLTGNYSQATLTVIATLREAIDLPQDAPNRQEVQDTARGQINDYISRYRRKGDAGGLKSFTTMQTALNSLAGYYTSYGARPIPEKLKKRLQLEFTQAERSIERGV [D38A]
41.9

Then MSFLKNQLSRLLALILVVAIGLTASDSGTGLTGNYSQDTLTVIATLREAIDLPQDAPNRQEVQDTARGQINDYISRYRRKGDAGGLKSFTTMQTALNSLAGYYTSYGARPIPEKLKKRLQLEFTQAERSIERGV [C25S] ?
58.2
